Biological target: Squalene synthase (Mus musculus) (UniProt P53798)
Sequence (P53798 whole entry): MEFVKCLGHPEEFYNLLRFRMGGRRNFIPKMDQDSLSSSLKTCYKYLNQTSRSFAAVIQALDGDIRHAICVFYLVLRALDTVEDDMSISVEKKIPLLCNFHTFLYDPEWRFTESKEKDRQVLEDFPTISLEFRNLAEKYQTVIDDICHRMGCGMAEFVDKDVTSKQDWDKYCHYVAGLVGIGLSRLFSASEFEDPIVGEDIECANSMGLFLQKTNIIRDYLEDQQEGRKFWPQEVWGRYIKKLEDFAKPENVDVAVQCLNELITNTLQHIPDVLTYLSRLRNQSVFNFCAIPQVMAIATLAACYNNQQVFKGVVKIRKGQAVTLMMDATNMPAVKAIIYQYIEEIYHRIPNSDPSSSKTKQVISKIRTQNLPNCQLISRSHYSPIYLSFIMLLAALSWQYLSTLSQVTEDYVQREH
Assay: Tested for the effective dose required for the incorporation of [5-3H]-mevalonolactone into cholesterol by in vivo mouse assay by peroral administration
Type: functional, organism-based
observation_type: ED50 (mg/kg)
Give the value in mg/kg but do not write mg/kg after it.

- molecule: "C=C(CCC12OC(C(=O)O)C(O)(C(=O)O)C(C(=O)O)(O1)[C@H](OCCCC)[C@H]2O)[C@@H](OC(C)=O)[C@H](C)Cc1ccccc1 (stereo partly drawn)"
  observation_type: "ED50"
  value_observed: 12

Task item: For the molecule C=C(CCC12OC(C(=O)O)C(O)(C(=O)O)C(C(=O)O)(O1)[C@H](OC(=O)CC)[C@H]2O)[C@@H](OC(C)=O)[C@H](C)Cc1ccccc1 (stereo partly drawn) , what ED50 is on record?
Reply: 12

Task item: ED50 lookup needed for C=C(CCC12OC(C(=O)O)C(O)(C(=O)O)C(C(=O)O)(O1)[C@H](OC(=O)NCC)[C@H]2O)[C@@H](OC(C)=O)[C@H](C)Cc1ccccc1 (stereo partly drawn) , thanks.
Reply: 11

Task item: Query: ED50; subject: C=C(CCC12OC(C(=O)O)C(O)(C(=O)O)C(C(=O)O)(O1)[C@H](OC(=O)OC(C)C)[C@H]2O)[C@@H](OC(C)=O)[C@H](C)Cc1ccccc1 (stereo partly drawn)
Reply: 10

Task item: Fill in: ED50 of C=C(CCC12OC(C(=O)O)C(O)(C(=O)O)C(C(=O)O)(O1)[C@H](OC(=O)OC)[C@H]2O)[C@@H](OC(C)=O)[C@H](C)Cc1ccccc1 (stereo partly drawn) is ___
Reply: 9

Task item: For the molecule C=C(CCC12OC(C(=O)O)C(O)(C(=O)O)C(C(=O)O)(O1)[C@H](OC(=O)NC)[C@H]2O)[C@@H](OC(C)=O)[C@H](C)Cc1ccccc1 (stereo partly drawn) , what ED50 is on record?
Reply: 11

----------
Target: Squalene synthase (Rattus norvegicus)
Assay: Concentration required to inhibit rat liver squalene synthase enzyme relative to control (L-694,599)
Relative activity of 0.05 or higher: yes (1). Under 0.05: no (0).

Solved entries (count: 8):
- compound: "C=C(CCC12OC(C(=O)O)C(O)(C(=O)O)C(C(=O)O)(O1)[C@H](OC(=O)OC(C)C)[C@H]2O)[C@@H](OC(C)=O)[C@H](C)Cc1ccccc1 (stereo not given in full)"
  target_or_test_system: "Squalene synthase (Rattus norvegicus)"
  class_name: "yes (1)"
- compound: "C=C(CCC12OC(C(=O)O)C(O)(C(=O)O)C(C(=O)O)(O1)[C@H](OC(=O)NCC13CC4CC(CC(C4)C1)C3)[C@H]2O)[C@@H](OC(C)=O)[C@H](C)Cc1ccccc1 (stereo not given in full)"
  target_or_test_system: "Squalene synthase (Rattus norvegicus)"
  class_name: "yes (1)"
- compound: "C=C(CCC12OC(C(=O)O)C(O)(C(=O)O)C(C(=O)O)(O1)[C@H](OC(=O)NCC1CC1)[C@H]2O)[C@@H](OC(C)=O)[C@H](C)Cc1ccccc1 (stereo not given in full)"
  target_or_test_system: "Squalene synthase (Rattus norvegicus)"
  class_name: "no (0)"
- compound: "C=C(CCC12OC(C(=O)O)C(O)(C(=O)O)C(C(=O)O)(O1)[C@H](OC(=O)CCCOC)[C@H]2O)[C@@H](OC(C)=O)[C@H](C)Cc1ccccc1 (stereo not given in full)"
  target_or_test_system: "Squalene synthase (Rattus norvegicus)"
  class_name: "no (0)"
- compound: "CC(/C=C/CCC(=O)O[C@@H]1[C@@H](O)C2(CCCCC(C)Cc3ccccc3)OC(C(=O)O)C(O)(C(=O)O)C1(C(=O)O)O2)CCCc1ccccc1 (stereo not given in full)"
  target_or_test_system: "Squalene synthase (Rattus norvegicus)"
  class_name: "yes (1)"
- compound: "C=C(CCC12OC(C(=O)O)C(O)(C(=O)O)C(C(=O)O)(O1)[C@H](OC(=O)OCC)[C@H]2O)[C@@H](OC(C)=O)[C@H](C)Cc1ccccc1 (stereo not given in full)"
  target_or_test_system: "Squalene synthase (Rattus norvegicus)"
  class_name: "no (0)"
- compound: "C=C(CCC12OC(C(=O)O)C(O)(C(=O)O)C(C(=O)O)(O1)[C@H](OC(=O)NCCCCCCCCCCCCCC)[C@H]2O)[C@@H](OC(C)=O)[C@H](C)Cc1ccccc1 (stereo not given in full)"
  target_or_test_system: "Squalene synthase (Rattus norvegicus)"
  class_name: "yes (1)"
- compound: "C=C(CCC12OC(C(=O)O)C(O)(C(=O)O)C(C(=O)O)(O1)[C@H](OC(=O)CCCCCCCCCCCCCCC)[C@H]2O)[C@@H](OC(C)=O)[C@H](C)Cc1ccccc1 (stereo not given in full)"
  target_or_test_system: "Squalene synthase (Rattus norvegicus)"
  class_name: "yes (1)"

Next, consider the following compound.
Task item: Quick check: does C=C(CCC12OC(C(=O)O)C(O)(C(=O)O)C(C(=O)O)(O1)[C@H](OC(=O)CCC)[C@H]2O)[C@@H](OC(C)=O)[C@H](C)Cc1ccccc1 (stereo not given in full) have Relative activity greater than or equal to 0.05?
Reply: yes (1)

----------
Biological target: Squalene synthase (Rattus norvegicus) (UniProt Q02769)
Sequence (whole entry): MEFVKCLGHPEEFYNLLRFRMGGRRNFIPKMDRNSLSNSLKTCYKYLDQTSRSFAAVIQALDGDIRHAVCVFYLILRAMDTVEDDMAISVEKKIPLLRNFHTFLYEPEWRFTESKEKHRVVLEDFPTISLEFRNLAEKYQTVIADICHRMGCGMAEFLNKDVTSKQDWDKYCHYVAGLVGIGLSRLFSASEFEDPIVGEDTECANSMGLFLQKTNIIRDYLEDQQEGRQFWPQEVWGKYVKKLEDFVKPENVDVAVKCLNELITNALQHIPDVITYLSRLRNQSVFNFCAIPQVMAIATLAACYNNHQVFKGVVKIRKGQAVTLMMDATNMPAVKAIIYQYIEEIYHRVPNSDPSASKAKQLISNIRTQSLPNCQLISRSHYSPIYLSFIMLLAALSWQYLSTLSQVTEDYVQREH
Assay: Concentration required to inhibit rat liver squalene synthase enzyme relative to control (L-694,599)
As shown below, each of these compounds has a reported Relative activity value.
Lab note: record just the number, no unit beside it.

Recorded results for 2 compounds are shown here.
- compound: "C=C(CCC12OC(C(=O)O)C(O)(C(=O)O)C(C(=O)O)(O1)[C@H](OCCC)[C@H]2O)[C@@H](OC(C)=O)[C@H](C)Cc1ccccc1 (stereo partly drawn)"
  Relative activity: 0.05
- compound: "C=C(CCC12OC(C(=O)O)C(O)(C(=O)O)C(C(=O)O)(O1)[C@H](OCCC(C)C)[C@H]2O)[C@@H](OC(C)=O)[C@H](C)Cc1ccccc1 (stereo partly drawn)"
  Relative activity: 0.09

Task item: Report Relative activity for C=C(CCC12OC(C(=O)O)C(O)(C(=O)O)C(C(=O)O)(O1)[C@H](OC(=O)CCCCCCCCCCCCC)[C@H]2O)[C@@H](OC(C)=O)[C@H](C)Cc1ccccc1 (stereo partly drawn) please.
Reply: 1.1

----------
Reported pIC50 values are given for each entry in this list.
Molecular target: Squalene synthase (Rattus norvegicus, UniProt Q02769)
Assay: Tested for inhibition against squalene synthase enzyme in rat liver
By convention, pIC50 is the negative base-10 log of a molar concentration.

- molecule: "C=C(CCC12OC(C(=O)O)C(O)(C(=O)O)C(C(=O)O)(O1)[C@H](OCCCCCCCCCCCCCC)[C@H]2O)[C@@H](OC(C)=O)[C@H](C)Cc1ccccc1 (some centres undefined)"
  observation_type: "pIC50"
  value_observed: 10.05

Task item: Item under review: C=C(CCC12OC(C(=O)O)C(O)(C(=O)O)C(C(=O)O)(O1)[C@H](OC(=S)NC(C)C)[C@H]2O)[C@@H](OC(C)=O)[C@H](C)Cc1ccccc1 (some centres undefined) . Reported pIC50?
Reply: 7.85

Task item: Consider the molecule shown here: C=C(CCC12OC(C(=O)O)C(O)(C(=O)O)C(C(=O)O)(O1)[C@H](OC(=O)CCC)[C@H]2O)[C@@H](OC(=O)CCC)[C@H](C)Cc1ccccc1 (some centres undefined) What is its recorded pIC50?
Reply: 8.01

Task item: Sample C=C(CCC12OC(C(=O)O)C(O)(C(=O)O)C(C(=O)O)(O1)[C@H](OCCCCCCCCCCCCCCCC)[C@H]2O)[C@@H](OC(C)=O)[C@H](C)Cc1ccccc1 (some centres undefined) — what was its pIC50?
Reply: 9.10

Task item: // lookup pIC50 for C=C(CCC12OC(C(=O)O)C(O)(C(=O)O)C(C(=O)O)(O1)[C@H](OC(=O)NCC13CC4CC(CC(C4)C1)C3)[C@H]2O)[C@@H](OC(C)=O)[C@H](C)Cc1ccccc1 (some centres undefined)
Reply: 9.10

All figures here come from ChEMBL document CHEMBL1127414.
